Assay: qHTS assay to identify small molecule that activate the aryl hydrocarbon receptor (AhR) signaling pathway - cell viability counter screen (AID 743086); further: nearly all actives have a fitted effect of over 45% in size
Settings: HepG2-AhR-luc viability, CellTiter-Fluor, 24 h; series mostly up to 70.3 µM
Results filed as inconclusive are left out. The source made the active and inactive calls. The call rests on the fitted dose curve; in most records, active means well fitted cell-killing curve with a large enough effect in the repeat runs; inconclusive means weak or mixed curves, or effect the other way; inactive means flat fitted curve, though single readings scatter.
Possible outcomes: y = active, n = inactive

>>> discretelabel("CCCC1C(CC)=CC(CC)=CN1c1ccccc1 (configuration not stated)")
"n"
>>> discretelabel("O=C(N[C@@H](c1ccccc1)[C@@H]1CCCCN1)c1cccc(C(F)(F)F)c1Cl")
"y"
>>> discretelabel("CCCOC(=O)c1ccc(C(=O)OCCC)nc1")
"n"
>>> discretelabel("COCC(O)CO (configuration not stated)")
"n"
>>> discretelabel("CCCOCCOCCO")
"n"
>>> discretelabel("CCCCN(CCCC)C(=S)SSC(=S)N(CCCC)CCCC")
"n"
>>> discretelabel("CSc1ccc(Oc2ccc(S(N)(=O)=O)cc2CN(C)C)cc1C")
"n"
